Study System: human PAH with the R408W mutation (Homo sapiens, UniProt P00439, R408W)
Construct: expressed in transfected cells
Sequence (P00439 whole entry R408W): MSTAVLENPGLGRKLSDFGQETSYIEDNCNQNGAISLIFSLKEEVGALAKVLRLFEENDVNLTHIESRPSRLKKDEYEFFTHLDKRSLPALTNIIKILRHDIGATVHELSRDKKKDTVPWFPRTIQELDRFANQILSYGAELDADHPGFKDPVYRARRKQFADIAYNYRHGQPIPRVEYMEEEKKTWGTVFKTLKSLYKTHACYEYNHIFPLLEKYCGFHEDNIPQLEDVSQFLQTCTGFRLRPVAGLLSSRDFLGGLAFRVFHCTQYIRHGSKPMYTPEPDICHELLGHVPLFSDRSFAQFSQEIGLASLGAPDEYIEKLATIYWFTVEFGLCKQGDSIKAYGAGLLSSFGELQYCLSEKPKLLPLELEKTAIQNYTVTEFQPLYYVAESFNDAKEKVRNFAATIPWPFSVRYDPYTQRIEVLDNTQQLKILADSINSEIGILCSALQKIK
Assay Text: Cell Based Phenylalanine Flux Assay;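 further: after compound treatment, cells received sepiapterin plus isotope-labelled Phenylalanine for 4 hours, then labelled Tyrosine in the medium was quantified, 10-point 2-fold dilution series run in duplicate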
Condition: A375 cells expressing human R408W PAH; 24 hrs compound incubation; 13C-Tyrosine by LC-MS; average where tested multiple times; read-out: AC50
Recorded AC50, one value per entry.

[[record]]
compound = "Cc1nn(C)cc1-c1nnc(C(=O)N2CCc3[nH]cnc3[C@@H]2c2cc3cccc(C(F)F)n3n2)o1"
property = "AC50"
val = "> 5 µM"

[[record]]
compound = "CC(C)(F)c1nnc(C(=O)N2CCc3[nH]cnc3[C@H]2c2cc3cccc(F)n3n2)o1"
property = "AC50"
val = "0.5 to 1 µM"

[[record]]
compound = "O=C(c1nnc(-c2ncccc2F)o1)N1CCc2[nH]cnc2[C@@H]1c1cc2c(OC(F)(F)F)cccn2n1"
property = "AC50"
val = "> 5 µM"

[[record]]
compound = "O=C(c1nnc(-c2ccn(C(F)F)n2)o1)N1CCc2[nH]cnc2[C@@H]1c1cc2cccc(Cl)n2n1"
property = "AC50"
val = "> 5 µM"

[[record]]
compound = "Cc1cccn2nc([C@@H]3c4nc[nH]c4CCN3C(=O)c3cnn4cc(-c5ccccn5)ccc34)cc12"
property = "AC50"
val = "0.5 to 1 µM"


Please turn your attention to the following entry.
Exercise: Suppose we examine the compound CC1(c2nnc(C(=O)N3CCc4[nH]cnc4[C@@H]3c3cc4cccc(C(F)(F)F)n4n3)o2)CC1 ; what AC50 value has been reported?
Key: 1 to 5 µM
